Taken from ChEMBL document CHEMBL5230178.

Collected fold change (FC) values appear next to each entry.
Test system: Klebsiella pneumoniae
experimental details: Potentiation of colistin-induced antibacterial activity against colistin-resistant Klebsiella pneumoniae B9 assessed as fold change in colistin MIC at 5 uM incubated for 16 hrs by broth microdilution method
Format: functional
Provide a numeric answer; units are not to be included.

O=C1Nc2cc(Br)ccc2/C1=C1/Nc2c(F)cccc2/C1=N\O :: 256

fold change (FC) reported for this compound O=C1Nc2cc(C(F)(F)F)ccc2/C1=C1/Nc2ccccc2/C1=N\O : 64

fold change (FC) reported for this compound O=C1Nc2cc(Br)ccc2/C1=C1/Nc2ccc(F)cc2/C1=N\O : 256

fold change (FC) reported for this compound O=C1Nc2cc(Br)ccc2/C1=C1/Nc2ccc(Cl)cc2/C1=N\O : 256
